These measurements were taken from the kinase profiling compilation of Christmann-Franck et al. (2016).

Target: CAMKK1 (human)
Assay: radiometric filter-binding kinase assay
Settings: compound 1.0 µM
measured_parameter: residual activity (%)

molecule | unit_of_measurement | number
COc1ccc2c(c1)c1c3c(c4c5ccccc5n(C)c4c1n2CC(O)CN(C)C)C(=O)NC3=O (centres undefined) | % | 97
Cn1nc(Nc2ccc(F)cc2)c2c(N)ncnc21 | % | 89
Oc1ccc(/C=C/c2cc(O)cc(O)c2)cc1 | % | 98
Cc1cccc(Nc2nn(C)c3ncnc(N)c23)c1 | % | 111

---

Test system: PAK2 (human), Q13177 [T402E]
Sequence (Q13177 whole entry T402E, looked up): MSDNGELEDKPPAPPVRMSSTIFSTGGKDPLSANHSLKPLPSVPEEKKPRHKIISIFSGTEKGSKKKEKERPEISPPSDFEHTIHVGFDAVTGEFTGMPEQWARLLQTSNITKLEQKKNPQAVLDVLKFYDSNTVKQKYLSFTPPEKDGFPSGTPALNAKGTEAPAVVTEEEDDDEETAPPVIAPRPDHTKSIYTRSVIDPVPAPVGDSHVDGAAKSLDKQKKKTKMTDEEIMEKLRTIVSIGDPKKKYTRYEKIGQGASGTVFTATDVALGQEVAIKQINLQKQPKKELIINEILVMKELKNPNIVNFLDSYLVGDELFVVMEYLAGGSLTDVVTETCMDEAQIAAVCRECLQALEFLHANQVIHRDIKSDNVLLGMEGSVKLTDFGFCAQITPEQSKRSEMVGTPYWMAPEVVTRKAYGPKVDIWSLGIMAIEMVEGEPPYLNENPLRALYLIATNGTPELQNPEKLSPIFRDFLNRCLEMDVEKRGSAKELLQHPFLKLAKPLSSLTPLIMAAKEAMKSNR
Experiment: radiometric filter-binding kinase assay
Conditions: compound 0.1 µM
measured_parameter: residual activity (%)

smiles | target_or_test_system | unit_of_measurement | residual activity
O=C(NCCCNc1nc(Nc2cccc(CN3CCOCC3)c2)ncc1C1CC1)C1CCC1 | PAK2 (human), Q13177 [T402E] | % | 101
CCCCCc1ccc(/C=C/[C@H](O)[C@@H](CO)NC)cc1 | PAK2 (human), Q13177 [T402E] | % | 113
O=C(N[C@@H](COc1ccc2[nH]c(=O)[nH]c2c1)c1ccccc1)c1cccn(Cc2ccc(F)c(F)c2)c1=O | PAK2 (human), Q13177 [T402E] | % | 113

A = O=C(O)c1ccc(-c2c[nH]c3ncc(-c4ccccc4)cc23)cc1C1CCCC1
B = COc1ccc(-n2ncc3cnc(Nc4cc(OC)c(OC)c(OCCCN5CCN(C)CC5)c4)nc32)cc1
Between these two entries, A and B , state which has the higher residual activity. Refer to your chosen item by its label in the answer.
A
(A: 99%, B: 50%)
